- testDetails: photoluminescence quantum yield (fraction); solvent given as SMILES
- conditionLabel: in CCOC(C)=O
resultType: photoluminescence quantum yield

[[record]]
compoundstring = "CC(C)(C)NC1=C2C=CC=[N+]2[B-](F)(F)n2cccc21"
resulttype = "photoluminescence quantum yield"
measuredvalue = 0.012

[[record]]
compoundstring = "COc1cc(OC)c(C2=C3C(C)=CC(C)=[N+]3[B-](F)(F)n3c(C)cc(C)c32)c(OC)c1"
resulttype = "photoluminescence quantum yield"
measuredvalue = 0.64

[[record]]
compoundstring = "O=C(O)COc1ccc2[nH]c3c(c2c1)CCCC3=O"
resulttype = "photoluminescence quantum yield"
measuredvalue = 0.018

[[record]]
compoundstring = "Cc1ccc(C2=C3C=CC(c4ccccc4)=[N+]3[B-](F)(F)n3c(Cl)ccc32)cc1"
resulttype = "photoluminescence quantum yield"
measuredvalue = 0.046

[[record]]
compoundstring = "Clc1nc(Cl)nc(Nc2ccc3c4cccc5cccc(c6cccc2c63)c54)n1"
resulttype = "photoluminescence quantum yield"
measuredvalue = 0.014

[[record]]
compoundstring = "CCN(CC)c1ccc2cc(/C=C/C(=O)/C=C(O)/C=C/c3cc4ccc(N(CC)CC)cc4oc3=O)c(=O)oc2c1"
resulttype = "photoluminescence quantum yield"
measuredvalue = 0.56

[[record]]
compoundstring = "CCn1c2ccc(/C=C/c3ccc4c(c3)c3cc(-c5nc6ccccc6s5)ccc3n4CC)cc2c2cc(-c3nc4ccccc4s3)ccc21"
resulttype = "photoluminescence quantum yield"
measuredvalue = 0.58

[[record]]
compoundstring = "c1cc2ccc3cc4[nH]ccc4c4ccc(c1)c2c34"
resulttype = "photoluminescence quantum yield"
measuredvalue = 0.95

[[record]]
compoundstring = "CCN(CC)c1ccc2cc(/C(Cl)=C/C=C/C(=C(C#N)C#N)c3ccc(N(c4ccccc4)c4ccccc4)cc3)c(=O)oc2c1"
resulttype = "photoluminescence quantum yield"
measuredvalue = 0.028

[[record]]
compoundstring = "COc1ccc(-c2nc(N)nc(C#N)c2C#N)cc1OC"
resulttype = "photoluminescence quantum yield"
measuredvalue = 0.0185

[[record]]
compoundstring = "CC1=CC(C)=[N+]2C1=Cc1c3ccccc3c(C#Cc3ccccc3)n1[B-]2(F)F"
resulttype = "photoluminescence quantum yield"
measuredvalue = 0.84

[[record]]
compoundstring = "CC1=[N+]2C(=Cc3ccc(C)n3[B-]2(F)F)C=C1c1cc2n(c1)[B-](F)(F)[N+]1=CC=CC1=C2c1c(C)cc(C)cc1C"
resulttype = "photoluminescence quantum yield"
measuredvalue = 0.11

[[record]]
compoundstring = "C[Si](C)(C)c1cc2c(cc3ccc4cccc5ccc2c3c45)[nH]1"
resulttype = "photoluminescence quantum yield"
measuredvalue = 0.95

[[record]]
compoundstring = "c1cc2ccc3ccc(-n4c5ccccc5c5ccccc54)c4ccc(c1)c2c34"
resulttype = "photoluminescence quantum yield"
measuredvalue = 0.29

[[record]]
compoundstring = "COc1nc(Nc2ccc3c4cccc5cccc(c6cccc2c63)c54)nc(OC)n1"
resulttype = "photoluminescence quantum yield"
measuredvalue = 0.47

[[record]]
compoundstring = "F[B-]1(F)n2c(Cl)ccc2C(c2c(Cl)cccc2Cl)=C2C=CC(NCc3ccccc3)=[N+]21"
resulttype = "photoluminescence quantum yield"
measuredvalue = 0.67

[[record]]
compoundstring = "CC1=[N+]2C(=C(c3ccc(C(=O)c4ccccc4)cc3)c3ccc(C)n3[B-]2(F)F)C=C1c1cc2n(c1)[B-](F)(F)[N+]1=CC=CC1=C2c1c(C)cc(C)cc1C"
resulttype = "photoluminescence quantum yield"
measuredvalue = 0.13

[[record]]
compoundstring = "CCN(CC)c1ccc2c(c1)oc(=O)c1c(C)nc3c(c(-c4ccccc4)nn3C)c12"
resulttype = "photoluminescence quantum yield"
measuredvalue = 0.627

